Collected IC50 values appear next to each entry.
- experimental.system: AKT2 (Homo sapiens (Human), UniProt P31751)
- Sequence (P31751 whole entry): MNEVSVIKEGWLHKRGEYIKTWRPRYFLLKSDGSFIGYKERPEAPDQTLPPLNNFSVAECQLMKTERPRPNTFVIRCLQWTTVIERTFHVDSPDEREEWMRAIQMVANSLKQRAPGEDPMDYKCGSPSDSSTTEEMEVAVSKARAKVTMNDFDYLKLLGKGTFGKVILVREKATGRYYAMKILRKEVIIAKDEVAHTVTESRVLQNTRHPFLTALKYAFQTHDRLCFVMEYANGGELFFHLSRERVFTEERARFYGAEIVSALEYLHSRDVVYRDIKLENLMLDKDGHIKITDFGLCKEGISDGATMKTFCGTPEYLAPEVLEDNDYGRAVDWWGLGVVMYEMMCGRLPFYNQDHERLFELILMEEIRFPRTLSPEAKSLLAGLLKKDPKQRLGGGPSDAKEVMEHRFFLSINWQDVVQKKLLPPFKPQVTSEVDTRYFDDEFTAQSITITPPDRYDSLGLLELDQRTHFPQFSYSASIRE
- assay.procedure: Live cell target engagement (NanoBRET) in HEK293 cells
- Type: cell-based
- run.parameters: HEK293, 2 hours at 37° C.
value.type: IC50

>>> endpoint_value("Nc1ncccc1-c1nc2ccc(C3CC3C(=O)N3CCOCC3)nc2n1-c1ccc(CNC(=O)Cc2ccc(C=O)c(O)c2)cc1 (stereo not drawn)")
"> 500 nM"
>>> endpoint_value("Nc1ncccc1-c1nc2ccc(-c3cccc(N4CCC(N5CCCC5=O)CC4)c3F)nc2n1-c1ccc(CNC(=O)Cc2ccc(C=O)c(O)c2)cc1")
"< 100 nM"
>>> endpoint_value("Nc1ncccc1-c1nc2ccc(C3CC3)nc2n1-c1ccc(CNC(=O)C(F)c2ccc(C=O)c(O)c2)cc1 (stereo not drawn)")
"> 500 nM"
